- Test system: THRa:RXRa (NR concentration 90 nM, RXRa partner concentration 90 nM)
- assayDetails: PBM binding z-score (relative to random genomic background probes); higher = stronger binding; sequences stand for … in GC…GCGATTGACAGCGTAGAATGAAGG
Threshold check on PBM binding z-score: at or above 2 gives Fulfilled, strictly below gives Not fulfilled.

seqText: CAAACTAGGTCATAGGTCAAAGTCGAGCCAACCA
targetUnderTest: THRa:RXRa (NR concentration 90 nM, RXRa partner concentration 90 nM)
assignedClass: Fulfilled
//
seqText: CGAACTAGGGCAGAACAGGACAGTGAAGGATGAT
targetUnderTest: THRa:RXRa (NR concentration 90 nM, RXRa partner concentration 90 nM)
assignedClass: Not fulfilled
//
seqText: TCATATAGGTGATACAGGTGAAAGTCGGCATCTA
targetUnderTest: THRa:RXRa (NR concentration 90 nM, RXRa partner concentration 90 nM)
assignedClass: Not fulfilled
//
seqText: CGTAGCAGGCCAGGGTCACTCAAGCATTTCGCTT
targetUnderTest: THRa:RXRa (NR concentration 90 nM, RXRa partner concentration 90 nM)
assignedClass: Fulfilled
//
seqText: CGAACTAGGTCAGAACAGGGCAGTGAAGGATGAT
targetUnderTest: THRa:RXRa (NR concentration 90 nM, RXRa partner concentration 90 nM)
assignedClass: Fulfilled

Determine whether measured PBM binding z-score meets or exceeds 2 for `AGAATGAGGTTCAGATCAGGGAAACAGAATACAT` Fulfilled

Determine whether measured PBM binding z-score meets or exceeds 2 for `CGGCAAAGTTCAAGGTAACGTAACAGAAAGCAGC` Fulfilled

Determine whether measured PBM binding z-score meets or exceeds 2 for `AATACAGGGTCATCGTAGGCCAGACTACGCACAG` Fulfilled

Determine whether measured PBM binding z-score meets or exceeds 2 for `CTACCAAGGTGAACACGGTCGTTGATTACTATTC` Fulfilled

Determine whether measured PBM binding z-score meets or exceeds 2 for `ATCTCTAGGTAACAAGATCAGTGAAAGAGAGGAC` Not fulfilled

Determine whether measured PBM binding z-score meets or exceeds 2 for `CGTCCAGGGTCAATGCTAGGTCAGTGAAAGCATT` Fulfilled

Determine whether measured PBM binding z-score meets or exceeds 2 for `TAGCATAGGTCAGATCGGGCCAGTATACGCTATA` Fulfilled

Determine whether measured PBM binding z-score meets or exceeds 2 for `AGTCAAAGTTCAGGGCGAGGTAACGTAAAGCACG` Fulfilled

Determine whether measured PBM binding z-score meets or exceeds 2 for `TCTGCTAGGTCAACGATGGTCATCTAATCTGCTA` Fulfilled

Determine whether measured PBM binding z-score meets or exceeds 2 for `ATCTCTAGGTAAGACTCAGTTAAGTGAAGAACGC` Not fulfilled

Determine whether measured PBM binding z-score meets or exceeds 2 for `CCTACTGCGCCAAAGGTCATTGATTCCAATGCTC` Fulfilled

Determine whether measured PBM binding z-score meets or exceeds 2 for `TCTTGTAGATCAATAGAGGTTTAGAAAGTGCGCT` Not fulfilled

Determine whether measured PBM binding z-score meets or exceeds 2 for `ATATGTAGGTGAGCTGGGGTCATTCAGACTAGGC` Fulfilled

Determine whether measured PBM binding z-score meets or exceeds 2 for `CGTCCAAGGTCAATGCTAGGTCAGTTAAAGCATT` Fulfilled

Determine whether measured PBM binding z-score meets or exceeds 2 for `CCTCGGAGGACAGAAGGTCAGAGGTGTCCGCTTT` Fulfilled

Values were extracted from the supplement of paper PMC6555819.
